All figures here come from ChEMBL document CHEMBL1149144.

# Assayed System: Retinoic acid receptor alpha (Homo sapiens, UniProt P10276)
# Sequence (P10276 whole entry): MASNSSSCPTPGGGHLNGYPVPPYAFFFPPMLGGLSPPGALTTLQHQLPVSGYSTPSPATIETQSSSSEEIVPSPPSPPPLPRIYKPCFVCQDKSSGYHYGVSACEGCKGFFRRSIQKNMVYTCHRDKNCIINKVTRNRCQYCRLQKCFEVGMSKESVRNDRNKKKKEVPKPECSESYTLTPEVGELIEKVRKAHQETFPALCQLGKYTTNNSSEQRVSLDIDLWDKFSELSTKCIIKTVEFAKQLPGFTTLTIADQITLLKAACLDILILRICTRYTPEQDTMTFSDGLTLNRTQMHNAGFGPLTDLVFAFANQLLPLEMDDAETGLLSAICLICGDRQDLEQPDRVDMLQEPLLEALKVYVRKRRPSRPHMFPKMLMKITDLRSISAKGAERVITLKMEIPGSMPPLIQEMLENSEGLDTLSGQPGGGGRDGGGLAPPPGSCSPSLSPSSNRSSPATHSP
pKi: −log10 of the molar value.
Catalogue of pKi values
Readout Type: pKi

{"Compound": "CC1(C)CCC(C)(C)c2cc(C3CCCc4oc(/C=C/C(=O)O)cc43)ccc21 (stereo in doubt; 60)", "Readout Type": "pKi", "Observed Measurement": "< 6.00"}
{"Compound": "CC1(C)CCC(C)(C)c2cc(Cc3coc(/C=C/C(=O)O)c3)ccc21", "Readout Type": "pKi", "Observed Measurement": "< 6.00"}
{"Compound": "CC1(C)CCC(C)(C)c2cc(C3CCCc4oc(/C=C/C(=O)O)cc43)ccc21 (stereo in doubt)", "Readout Type": "pKi", "Observed Measurement": "< 6.00"}
{"Compound": "CC1(C)CCC(C)(C)c2cc(C3CCCc4oc(/C=C/C(=O)O)cc43)ccc21 (single isomer, unassigned)", "Readout Type": "pKi", "Observed Measurement": "< 6.00"}
{"Compound": "CC1(C)CCC(C)(C)c2cc(C3CCCc4sc(/C=C/C(=O)O)cc43)ccc21 (stereo not given)", "Readout Type": "pKi", "Observed Measurement": "< 6.00"}
{"Compound": "COc1cc2c(cc1C1CCCc3oc(/C=C/C(=O)O)cc31)C(C)(C)CCC2(C)C (stereo not given)", "Readout Type": "pKi", "Observed Measurement": "< 6.00"}
{"Compound": "CC1(C)CCC(C)(C)c2cc(-c3ccc(/C=C/C(=O)O)o3)ccc21", "Readout Type": "pKi", "Observed Measurement": 7.03}
{"Compound": "CC1(C)CCC(C)(C)c2cc(C3CCCc4oc(/C=C/C(=O)O)cc43)ccc21 (racemic)", "Readout Type": "pKi", "Observed Measurement": "< 6.00"}
{"Compound": "CC1(C)CCC(C)(C)c2cc(C3CCCc4oc(/C=C5/SC(=O)NC5=O)cc43)ccc21 (stereo not given)", "Readout Type": "pKi", "Observed Measurement": "< 6.00"}
{"Compound": "CN1Cc2oc(/C=C/C(=O)O)cc2C(c2ccc3c(c2)C(C)(C)CCC3(C)C)C1 (stereo not given)", "Readout Type": "pKi", "Observed Measurement": "< 6.00"}

###

Entries and their pEC50 values follow.
# Assayed System: Retinoic acid receptor RXR-alpha (Homo sapiens)
# Sequence (P19793 whole entry): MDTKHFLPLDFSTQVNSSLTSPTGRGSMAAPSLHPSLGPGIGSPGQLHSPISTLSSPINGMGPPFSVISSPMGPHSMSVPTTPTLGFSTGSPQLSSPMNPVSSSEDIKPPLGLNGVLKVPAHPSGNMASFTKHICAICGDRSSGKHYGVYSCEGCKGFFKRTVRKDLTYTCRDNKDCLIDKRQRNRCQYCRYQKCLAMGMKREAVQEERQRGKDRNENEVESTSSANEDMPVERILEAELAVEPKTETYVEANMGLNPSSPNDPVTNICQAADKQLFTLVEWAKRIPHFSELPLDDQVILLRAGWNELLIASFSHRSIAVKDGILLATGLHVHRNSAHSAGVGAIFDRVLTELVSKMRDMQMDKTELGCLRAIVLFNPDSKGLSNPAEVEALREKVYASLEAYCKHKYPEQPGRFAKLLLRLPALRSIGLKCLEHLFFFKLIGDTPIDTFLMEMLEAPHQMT
# Experiment Summary: Effective concentration for Retinoid X receptor alpha activity in CV-1 cells
# Assay type: functional, cell-based
pEC50: −log10 of the molar value.

{"Compound": "CC1(C)CCC(C)(C)c2cc(C3CCCc4oc(/C=C/C(=O)O)cc43)ccc21 (stereo in doubt)", "pEC50": 8.30}
{"Compound": "CN1Cc2oc(/C=C/C(=O)O)cc2C(c2ccc3c(c2)C(C)(C)CCC3(C)C)C1 (centres undefined)", "pEC50": 7.15}
{"Compound": "CC(=CC(=O)O)c1cc2c(o1)CCCC2c1ccc2c(c1)C(C)(C)CCC2(C)C (centres undefined)", "pEC50": 7.22}
{"Compound": "CC1(C)CCC(C)(C)c2cc(C3CCCc4sc(/C=C/C(=O)O)cc43)ccc21 (centres undefined)", "pEC50": 7.70}
